molecular target: Carbonic anhydrase 13 (Mus musculus, UniProt Q9D6N1)
Sequence (Q9D6N1 whole entry): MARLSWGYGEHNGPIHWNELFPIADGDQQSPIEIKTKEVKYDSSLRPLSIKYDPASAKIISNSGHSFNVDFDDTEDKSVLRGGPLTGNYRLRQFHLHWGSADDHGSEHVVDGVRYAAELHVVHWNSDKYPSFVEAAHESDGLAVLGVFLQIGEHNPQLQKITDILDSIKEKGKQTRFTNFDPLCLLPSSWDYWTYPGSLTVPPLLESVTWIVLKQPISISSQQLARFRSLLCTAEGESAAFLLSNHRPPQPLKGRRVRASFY
Parameter measured: Ki (µM)

>>> measured("NS(=O)(=O)c1ccc2[nH]c(-c3cscn3)nc2c1")
4.85

###

target: UniProt Q16790
pKi: −log10 of the molar value.
Parameter measured: pKi

>>> measured("NS(=O)(=O)c1ccc2[nH]c(-c3cscn3)nc2c1")
8.19
